experiment: Brain-to-blood drug concentration ratio of mice; assay type: in vivo; conditions: mouse, brain, 5 mg/kg PO, 2 h, read-out: Brain drug concentration

[
  {
    "molecule": "Cn1cc([C@@H]([C@H](O)c2ccccc2)N2Cc3ccc(-c4nnc(C(F)F)o4)cc3S2(=O)=O)cn1 [Compound 80]",
    "concentration at 2 h": "160 ng/mL"
  },
  {
    "molecule": "O=C(N[C@@H]1CCCC[C@H]1N1Cc2ccc(-c3nnc(C(F)F)o3)cc2S1(=O)=O)N1CCOCC1 [Compound 113]",
    "concentration at 2 h": "16.2 ng/mL"
  },
  {
    "molecule": "O=S(=O)(N[C@@H]1CCCC[C@H]1N1Cc2ccc(-c3nnc(C(F)F)o3)cc2S1(=O)=O)C1CC1 [Compound 4]",
    "concentration at 2 h": "190 ng/mL"
  },
  {
    "molecule": "CC(F)(F)C(=O)N[C@@H]1CCCC(F)(F)[C@H]1N1Cc2ccc(-c3nnc(C(F)F)o3)cc2S1(=O)=O [Compound 10]",
    "concentration at 2 h": "338 ng/mL"
  }
]

###

assay: Pharmacokinetic test in mice (IV and PO); type: in vivo, BALB/c mice; conditions: mice, IV 1 mg/kg
// t½z lookup, one value per entry
readout-kind: t½z

[
  {
    "smi": "CC(F)(F)C(=O)N[C@@H]1CCCC(F)(F)[C@H]1N1Cc2ccc(-c3nnc(C(F)F)o3)cc2S1(=O)=O",
    "meas-value": "1.9 h"
  },
  {
    "smi": "O=S1(=O)c2cc(-c3nnc(C(F)F)o3)ccc2CN1[C@H](c1ccccn1)[C@H](O)c1ccc(F)cn1",
    "meas-value": "0.6 h"
  },
  {
    "smi": "CN(C)C(=O)N[C@@H]1CCCC[C@H]1N1Cc2ccc(-c3nnc(C(F)F)o3)cc2S1(=O)=O",
    "meas-value": "0.7 h"
  },
  {
    "smi": "O=C(N[C@@H]1CCOC[C@H]1N1Cc2ccc(-c3nnc(C(F)F)o3)cc2S1(=O)=O)C(F)F",
    "meas-value": "1.277 h"
  },
  {
    "smi": "O=C(N[C@@H]1CCCC[C@H]1N1Cc2ccc(-c3nnc(C(F)F)o3)cc2S1(=O)=O)N1CCOCC1",
    "meas-value": "0.605 h"
  },
  {
    "smi": "O=C(N[C@@H]1COCC[C@H]1N1Cc2ccc(-c3nnc(C(F)F)o3)cc2S1(=O)=O)C(F)F",
    "meas-value": "1.52 h"
  },
  {
    "smi": "Cn1cc([C@@H]([C@H](O)c2ccccc2)N2Cc3ccc(-c4nnc(C(F)F)o4)cc3S2(=O)=O)cn1",
    "meas-value": "1.8 h"
  }
]

###

test: Pharmacokinetic test in mice (IV and PO); type: in vivo, BALB/c mice; conditions: BALB/c, mouse, plasma; mice, PO 5 mg/kg; read-out: MRT(0-∞)
Criterion: MRT inf strictly less than 2 h. Met: Yes. Not met: No.

[
  {
    "smi": "O=C(N[C@@H]1CCOC[C@H]1N1Cc2ccc(-c3nnc(C(F)F)o3)cc2S1(=O)=O)C(F)F",
    "group-label": "Yes"
  },
  {
    "smi": "CN(C)C(=O)N[C@@H]1CCCC[C@H]1N1Cc2ccc(-c3nnc(C(F)F)o3)cc2S1(=O)=O",
    "group-label": "Yes"
  },
  {
    "smi": "O=C(N[C@@H]1CCCC[C@H]1N1Cc2ccc(-c3nnc(C(F)F)o3)cc2S1(=O)=O)N1CCOCC1",
    "group-label": "Yes"
  },
  {
    "smi": "O=C(N[C@@H]1COCC[C@H]1N1Cc2ccc(-c3nnc(C(F)F)o3)cc2S1(=O)=O)C(F)F",
    "group-label": "No"
  },
  {
    "smi": "CC(F)(F)C(=O)N[C@@H]1CCCC(F)(F)[C@H]1N1Cc2ccc(-c3nnc(C(F)F)o3)cc2S1(=O)=O",
    "group-label": "No"
  },
  {
    "smi": "O=S1(=O)c2cc(-c3nnc(C(F)F)o3)ccc2CN1[C@H](c1ccccn1)[C@H](O)c1ccc(F)cn1",
    "group-label": "No"
  },
  {
    "smi": "Cn1cc([C@@H]([C@H](O)c2ccccc2)N2Cc3ccc(-c4nnc(C(F)F)o4)cc3S2(=O)=O)cn1",
    "group-label": "No"
  }
]

###

Entries and their half-life at 1 M
experiment: Phase I metabolic stability in mouse liver microsomes (MLMs); format: in vitro ADME, CD-1 mice; settings: CD-1, mouse, liver microsomes, pH 7.4; MLM

[
  {
    "molecule": "O=C(N[C@H]1[C@H](N2Cc3ccc(-c4nnc(C(F)F)o4)cc3S2(=O)=O)CCCC1(F)F)C(F)F [Compound 61]",
    "qualifier-operator": "=",
    "half-life at 1 M, h": 4.9
  },
  {
    "molecule": "O=C(N[C@@H]1CCCC[C@H]1N1Cc2ccc(-c3nnc(C(F)F)o3)cc2S1(=O)=O)C(F)F [Compound 2]",
    "qualifier-operator": ">",
    "half-life at 1 M, h": 2.42
  },
  {
    "molecule": "CC(F)(F)C(=O)N[C@@H]1CCCC[C@H]1N1Cc2ccc(-c3nnc(C(F)F)o3)cc2S1(=O)=O [Compound 1]",
    "qualifier-operator": ">",
    "half-life at 1 M, h": 2.42
  },
  {
    "molecule": "O=S1(=O)c2cc(-c3nnc(C(F)F)o3)ccc2CN1C(c1ccccn1)[C@H](O)c1ccccn1 (stereo partly shown) [Compound 83]",
    "qualifier-operator": "=",
    "half-life at 1 M, h": 2.2
  }
]

###

assay: Phase I metabolic stability in monkey liver microsomes (CLMs); assay type: in vitro ADME, cynomolgus monkeys; settings: cynomolgus monkey, liver microsomes, pH 7.4; CLM
# Lookup of reported half-life at 1 M keyed by entry

[
  {
    "smi": "CC(F)(F)C(=O)N[C@@H]1CCCC[C@H]1N1Cc2ccc(-c3nnc(C(F)F)o3)cc2S1(=O)=O",
    "half-life at 1 M": "> 2.42 h"
  },
  {
    "smi": "O=C(N[C@@H]1CCCC[C@H]1N1Cc2ccc(-c3nnc(C(F)F)o3)cc2S1(=O)=O)C(F)F",
    "half-life at 1 M": "> 2.42 h"
  }
]

###

Recorded CLint scaled at 1 µM by entry
experiment: Phase I metabolic stability in monkey liver microsomes (CLMs); assay type: in vitro ADME, cynomolgus monkeys; conditions: cynomolgus monkey, liver microsomes, pH 7.4; CLM

[
  {
    "smi": "CC(F)(F)C(=O)N[C@@H]1CCCC[C@H]1N1Cc2ccc(-c3nnc(C(F)F)o3)cc2S1(=O)=O",
    "CLint scaled at 1 µM": "< 13 mL/min/kg"
  },
  {
    "smi": "O=C(N[C@@H]1CCCC[C@H]1N1Cc2ccc(-c3nnc(C(F)F)o3)cc2S1(=O)=O)C(F)F",
    "CLint scaled at 1 µM": "< 13 mL/min/kg"
  }
]

###

test: Brain-to-blood drug concentration ratio of mice; assay type: in vivo; settings: mouse, brain, 5 mg/kg PO, 1 h, read-out: Brain drug concentration

[
  {
    "smi": "O=C(N[C@@H]1COCC[C@H]1N1Cc2ccc(-c3nnc(C(F)F)o3)cc2S1(=O)=O)C(F)F",
    "concentration at 1 h, ng/mL": 218
  },
  {
    "smi": "O=C(N[C@@H]1CCOC[C@H]1N1Cc2ccc(-c3nnc(C(F)F)o3)cc2S1(=O)=O)C(F)F",
    "concentration at 1 h, ng/mL": 85.6
  },
  {
    "smi": "O=C(N[C@@H]1CCCC[C@H]1N1Cc2ccc(-c3nnc(C(F)F)o3)cc2S1(=O)=O)N1CCOCC1",
    "concentration at 1 h, ng/mL": 44.8
  }
]

###

Entries and their concentration at 1 h
experiment: Brain-to-blood drug concentration ratio of mice; type: in vivo; conditions: mouse, plasma, 5 mg/kg PO, 1 h, read-out: Blood drug concentration
readout-kind: concentration at 1 h (ng/mL)

[
  {
    "smi": "O=C(N[C@@H]1CCCC[C@H]1N1Cc2ccc(-c3nnc(C(F)F)o3)cc2S1(=O)=O)N1CCOCC1",
    "readout-kind": "concentration at 1 h",
    "unit-abbrev": "ng/mL",
    "meas-value": 1400
  },
  {
    "smi": "O=C(N[C@@H]1CCOC[C@H]1N1Cc2ccc(-c3nnc(C(F)F)o3)cc2S1(=O)=O)C(F)F",
    "readout-kind": "concentration at 1 h",
    "unit-abbrev": "ng/mL",
    "meas-value": 2450
  },
  {
    "smi": "O=C(N[C@@H]1COCC[C@H]1N1Cc2ccc(-c3nnc(C(F)F)o3)cc2S1(=O)=O)C(F)F",
    "readout-kind": "concentration at 1 h",
    "unit-abbrev": "ng/mL",
    "meas-value": 2950
  }
]
